Test system: Fer (mouse);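 also: 11-residue human phosphosite peptides and single-mutation variants displayed on the E. coli surface, counted by deep sequencing, each peptide's frequency after selection divided by its frequency in the unselected input library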;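 also: frequency after pTyr selection over input frequency; kinase dosed for 20-30% of maximal phosphorylation in three min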
Assay: phosphorylation enrichment, bacterial display (enrichment ratio); higher = better substrate or ligand; peptides without Tyr show the background
Classify by measured phosphorylation enrichment: 1.0 if it is equal to or exceeds 0.7, 0.0 if it is smaller.

[ask] Would you say TQNGVYSAANF [DDX5_Y535_YF] shows phosphorylation enrichment at minimum 0.7?
[reply] 1.0

[ask] Would you say PLDGEYFTLHI [TP53_Y327_Q331H] shows phosphorylation enrichment at minimum 0.7?
[reply] 1.0

[ask] Would you say HHIDYYKKTTN [FGFR1_Y654] shows phosphorylation enrichment at minimum 0.7?
[reply] 0.0

[ask] Would you say KYWREYILSLE [GPC3_Y299] shows phosphorylation enrichment at minimum 0.7?
[reply] 0.0

[ask] Would you say MSSLPYMKVIF [SLC4A11_Y853_M856V] shows phosphorylation enrichment at minimum 0.7?
[reply] 1.0

[ask] Would you say VLALWYYYLTH [ZDHHC23_Y127] shows phosphorylation enrichment at minimum 0.7?
[reply] 1.0

[ask] Would you say REGDKYVSHGA [ASS1_Y113_A111D] shows phosphorylation enrichment at minimum 0.7?
[reply] 0.0
